assay: gradient 5% acetonitrile 3 min, to 50% in 2 min, to 85% in 15 min, held 3 min, 100 µL/min; details: column: Zorbax Extend-C18 2.1 x 50 mm; eluents: water / acetonitrile, 0.1% formic acid
// label = label 1 if RP-LC retention time is not less than 800 s, otherwise label 0

{"compound": "Cc1ccc2cc(CCC(=O)NCCCN3CCCCC3)c(=O)[nH]c2c1", "category": "label 0"}
{"compound": "O=C(Nc1cccc(OCc2nnc(-c3ccccc3)o2)c1)c1ccccn1", "category": "label 1"}
{"compound": "CCc1cccc(NC(=O)Cn2c(=O)n(-c3cccc(C)c3)c(=O)c3c2cc(C)n3C)c1", "category": "label 1"}
{"compound": "CCOC(=O)CCCSc1nc2sc3c(c2c(=O)[nH]1)CCC3", "category": "label 1"}
{"compound": "CN(CCCNC(=O)C1CCCN(c2ccc(N3CCOCC3)nn2)C1)c1ccccc1 (stereo not drawn)", "category": "label 0"}

[in] For this compound, is measured RP-LC retention time 800 s or higher? CCNC(=O)N1CCCC(c2cccc(C(=O)NCCN3CCOCC3)c2)C1 (stereo not drawn)
[out] label 0

[in] Given the entry COc1ccc(OCc2nc(-c3cccc(-c4csc(C5CC5)n4)c3)no2)cc1 , answer whether its RP-LC retention time meets or surpasses 800 s.
[out] label 1

[in] hey, is RP-LC retention time for this one >= 800 s? CCN(CC)S(=O)(=O)c1ccc2c(c1)CC(C(=O)NCCN1CCCCCC1)N2C(C)=O (stereo not drawn)
[out] label 0

[in] Test whether the compound Cc1cc(=O)n(CC(=O)Nc2cccc(C)c2C)c(NCCCc2ccccc2)n1 records RP-LC retention time of 800 s or higher.
[out] label 1

[in] For this compound, is measured RP-LC retention time 800 s or higher? CCOC(=O)CCC(=O)N1CCC(Oc2nc3c(C)ccc(C)c3s2)CC1
[out] label 1
